# Target of assay: IRAK4 (Homo sapiens, UniProt Q9NWZ3)
# Sequence (Q9NWZ3 1-460): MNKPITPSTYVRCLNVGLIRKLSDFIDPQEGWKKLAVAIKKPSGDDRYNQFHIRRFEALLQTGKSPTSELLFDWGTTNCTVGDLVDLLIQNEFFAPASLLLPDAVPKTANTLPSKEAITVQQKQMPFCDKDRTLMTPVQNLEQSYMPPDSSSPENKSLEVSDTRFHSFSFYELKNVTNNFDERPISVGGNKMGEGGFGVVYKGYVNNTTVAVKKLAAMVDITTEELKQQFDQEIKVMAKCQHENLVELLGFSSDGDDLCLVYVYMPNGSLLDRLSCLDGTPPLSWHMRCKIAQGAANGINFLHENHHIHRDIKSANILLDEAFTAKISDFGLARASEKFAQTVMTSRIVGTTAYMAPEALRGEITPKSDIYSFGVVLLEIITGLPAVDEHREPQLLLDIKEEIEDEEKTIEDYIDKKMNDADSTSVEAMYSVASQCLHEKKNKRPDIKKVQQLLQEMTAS
# Procedure summary: Hibit fluorescence detection of proteolysis (IRAK4-HiBiT in HEK293T cells)
# Format: cell-based
# Design: host or cells: HEK293T (ATCC)
# Details: IRAK4-HiBiT, HEK293T cells, 24 h
Hi there, I'd appreciate the recorded DC50 for every entry that follows.

What does the data say about its DC50? Entry: Cn1c(=O)n(C2CCC(=O)NC2=O)c2cccc(CN3CC4(CCN(C[C@H]5CC[C@H](n6cc(-n7cc(-c8cnn9ccc(N%10CCOCC%10)nc89)nn7)c(C(F)F)n6)CC5)CC4)C3)c21 (stereo partly drawn) < 0.5 nM

What does the data say about its DC50? Entry: CN(C[C@H]1CC[C@H](n2cc(-n3cc(-c4cnn5ccc(N6CCOCC6)nc45)nn3)c(C(F)F)n2)CC1)C1CCN(Cc2cccc3c2n(C)c(=O)n3C2CCC(=O)NC2=O)CC1 (stereo partly drawn) 1 to 5 nM

What does the data say about its DC50? Entry: C[C@H]1COCCN1c1ccn2ncc(-c3cn(-c4cn([C@H]5CC[C@H](CN6CCN(C7CCN(c8cccc9c8n(C)c(=O)n9C8CCC(=O)NC8=O)CC7)CC6)CC5)nc4C(F)F)nn3)c2n1 (stereo partly drawn) < 0.5 nM

Just for reference, patent EP4759807A1 is where these values come from.
